Just for reference, paper PMC10196870 is where these values come from.

- assay.system: Sphingobacterium multivorum SPT (Sphingobacterium multivorum)
- Construct: harboring the plasmid that express the full length of S. multivorum SPT; made in house; host or cells: Escherichia coli BL21 (DE3) pLysS
- test.name: Spectroscopic titration of SPT with amino acids (dissociation constants, external aldimine formation)
- Format: binding
- applied.conditions: 10 μM SPT, 100 mM potassium phosphate, 0.1 mM EDTA, pH 7.5, 25 °C, absorption at 422 nm; mean ± SD
metric: Kd (mM)
Express the result in mM but write the number alone.

1) N[C@@H](CCO)C(=O)O = 3.6
2) NC(CO)(CO)CO [Tris, tris(hydroxymethyl)aminomethane] = 40
3) N[C@@H](CO)C(=O)O = 0.45
4) C[C@@H](O)[C@H](N)C(=O)O = 8.2

Moving on to another molecule below.
Field: Kd (Sphingobacterium multivorum SPT (Sphingobacterium multivorum)). Entry: "NCC(=O)O"
71

====

- assay.system: Sphingobacterium multivorum SPT (Sphingobacterium multivorum)
- Construct: harboring the plasmid that express the full length of S. multivorum SPT; made in house; host or cells: Escherichia coli BL21 (DE3) pLysS
- test.name: Spectroscopic titration of SPT with amino acids (dissociation constants, external aldimine formation)
- Assay type: binding
- applied.conditions: absorption intensity at 424 nm immediately after SPT was mixed with L-Ala (text: 420 nm), 10 μM SPT, pH 7.5, 25 °C
metric: pKd
In simple prose, pKd is minus the logarithm base ten of a concentration in moles per litre.

Field: pKd (Sphingobacterium multivorum SPT (Sphingobacterium multivorum)). Entry: C[C@H](N)C(=O)O [L-Ala, L-alanine]
1.19

====

- assay.system: Sphingobacterium multivorum SPT (Sphingobacterium multivorum, UniProt A7BFV6)
- Construct: harboring the plasmid that express the full length of S. multivorum SPT; made in house; host or cells: Escherichia coli BL21 (DE3) pLysS
- Sequence (A7BFV6 whole entry): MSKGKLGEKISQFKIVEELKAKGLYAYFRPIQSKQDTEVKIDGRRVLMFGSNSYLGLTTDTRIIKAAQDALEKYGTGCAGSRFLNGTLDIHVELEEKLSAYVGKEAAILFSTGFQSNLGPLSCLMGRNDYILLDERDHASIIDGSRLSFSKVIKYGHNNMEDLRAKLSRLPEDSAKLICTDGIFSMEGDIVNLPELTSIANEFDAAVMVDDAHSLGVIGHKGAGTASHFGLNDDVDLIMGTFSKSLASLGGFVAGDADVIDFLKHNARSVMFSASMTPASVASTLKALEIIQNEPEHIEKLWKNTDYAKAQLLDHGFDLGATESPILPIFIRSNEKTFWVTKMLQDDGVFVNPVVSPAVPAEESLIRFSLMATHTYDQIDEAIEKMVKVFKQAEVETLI
- test.name: Steady-state kinetic analysis of SPT (LCB production from amino acid and PalCoA, quantified by TLC fluorescence)
- Type: biochemical
- applied.conditions: 1 mM PalCoA, pH 7.5, 37 °C
metric: kcatapp/Kmapp (apparent catalytic efficiency) (min^–1 mM^–1)
Express the result in min^–1 mM^–1 but write the number alone.

1) N[C@@H](CO)C(=O)O [L-Ser, L-serine] = 3.6
2) N[C@@H](CCO)C(=O)O [L-Hse, L-homoserine] = 0.055
3) NCC(=O)O [Gly, glycine] = 0.0001

Moving on to another molecule below.
Which value of kcatapp/Kmapp (apparent catalytic efficiency) has been reported for C[C@H](N)C(=O)O [L-Ala, L-alanine] in the records?
0.0037
